target system: JAK2 JH1 JH2 (human) (UniProt O60674)
Sequence (O60674 whole entry, looked up): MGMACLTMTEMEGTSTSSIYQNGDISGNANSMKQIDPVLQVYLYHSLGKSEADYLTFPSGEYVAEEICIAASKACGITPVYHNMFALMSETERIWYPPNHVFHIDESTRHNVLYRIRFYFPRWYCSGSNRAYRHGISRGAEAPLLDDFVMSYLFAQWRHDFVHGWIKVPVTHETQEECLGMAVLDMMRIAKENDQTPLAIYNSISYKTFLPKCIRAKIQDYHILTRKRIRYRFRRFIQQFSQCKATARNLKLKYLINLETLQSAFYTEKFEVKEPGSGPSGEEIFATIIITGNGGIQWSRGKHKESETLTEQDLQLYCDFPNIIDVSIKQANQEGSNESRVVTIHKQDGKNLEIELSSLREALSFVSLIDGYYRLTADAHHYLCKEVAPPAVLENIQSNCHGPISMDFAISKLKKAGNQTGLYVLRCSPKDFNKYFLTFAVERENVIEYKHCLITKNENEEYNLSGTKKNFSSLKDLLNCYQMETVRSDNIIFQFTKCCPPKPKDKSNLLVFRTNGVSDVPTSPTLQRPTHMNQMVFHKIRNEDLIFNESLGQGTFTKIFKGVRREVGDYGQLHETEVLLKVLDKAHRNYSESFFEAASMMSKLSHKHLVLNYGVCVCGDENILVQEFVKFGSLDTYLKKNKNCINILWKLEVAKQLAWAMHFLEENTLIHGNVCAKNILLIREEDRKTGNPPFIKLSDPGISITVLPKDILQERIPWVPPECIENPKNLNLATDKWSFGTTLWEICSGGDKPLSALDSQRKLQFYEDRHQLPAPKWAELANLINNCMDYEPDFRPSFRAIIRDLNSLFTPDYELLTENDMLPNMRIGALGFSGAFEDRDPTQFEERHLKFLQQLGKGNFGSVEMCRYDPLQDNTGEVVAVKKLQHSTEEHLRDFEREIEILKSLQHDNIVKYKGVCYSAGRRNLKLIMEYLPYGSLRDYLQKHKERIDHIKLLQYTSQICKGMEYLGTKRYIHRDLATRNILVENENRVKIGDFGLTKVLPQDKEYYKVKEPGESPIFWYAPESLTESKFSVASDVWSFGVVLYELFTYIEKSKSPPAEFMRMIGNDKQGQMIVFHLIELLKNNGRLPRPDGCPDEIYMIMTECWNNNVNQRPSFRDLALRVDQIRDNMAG
experiment summary: radiometric filter-binding kinase assay
reported conditions: compound 1.0 µM
reported endpoint: residual activity (%)

- CNc1nc(-c2ccc3c(N)n[nH]c3c2)cc(N2C[C@@H](C(=O)NC3CCCCC3)CC[C@H]2C)n1: 108
- NCC(=O)Nc1ccc(-n2nc(C(F)(F)F)cc2-c2ccc3c(ccc4ccccc43)c2)cc1: 101
- CCn1c(-c2nonc2N)nc2cncc(CNC3CCNCC3)c21: 103
- NC1(c2ccc(-c3nc4ccn5c(=O)[nH]nc5c4cc3-c3ccccc3)cc2)CCC1: 84

====

target system: NEK2 (human)
experiment summary: radiometric filter-binding kinase assay
reported conditions: compound 10.0 µM
reported endpoint: residual activity (%)

As a guide, the following entries are already answered.
- CC(C)(C#N)c1ccc(N2C(=O)OCc3cnc4ccc(-c5cnc6ccccc6c5)cc4c32)cc1: 103
- O=C(NOC[C@H](O)CO)c1ccc(F)c(F)c1Nc1ccc(I)cc1Cl: 102
- CCCCCc1ccc(/C=C/[C@H](O)[C@@H](CO)NC)cc1: 108

I: Cc1cccc(Nc2nn(C)c3ncnc(N)c23)c1
II: NC(=O)c1ccc(-c2ccc(Oc3cncc4sc(-c5nn[nH]n5)cc34)cc2)cc1
Just curious, which one has the larger residual activity reading, I or II ? Lab log: write the label of the selected item as the result.
I
(I: 115%, II: 80%)

====

target system: UniProtKB P49137
Sequence (P49137 whole entry, looked up): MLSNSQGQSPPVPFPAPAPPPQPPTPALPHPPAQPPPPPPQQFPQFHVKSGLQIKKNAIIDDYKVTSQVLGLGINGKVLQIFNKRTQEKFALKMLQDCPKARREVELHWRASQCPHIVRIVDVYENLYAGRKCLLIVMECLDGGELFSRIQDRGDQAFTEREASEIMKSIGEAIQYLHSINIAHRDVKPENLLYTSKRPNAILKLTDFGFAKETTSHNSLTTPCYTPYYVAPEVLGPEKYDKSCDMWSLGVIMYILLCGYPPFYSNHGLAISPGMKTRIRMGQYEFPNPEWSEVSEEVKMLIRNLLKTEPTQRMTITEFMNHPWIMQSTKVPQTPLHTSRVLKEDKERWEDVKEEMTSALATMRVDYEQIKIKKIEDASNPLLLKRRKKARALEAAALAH
experiment summary: radiometric filter-binding kinase assay
reported conditions: compound 1.0 µM
reported endpoint: residual activity (%)

As a guide, the following entries are already answered.
* NC(=O)c1ccc(-c2ccc(Oc3cncc4sc(-c5nn[nH]n5)cc34)cc2)cc1 | 93
* FC(F)(F)c1ccc(-c2ccc(Oc3cncc4sc(-c5nn[nH]n5)cc34)cc2)cc1 | 97

a: Nc1cccc2c1CN(C1CCC(=O)NC1=O)C2=O (centres undefined)
b: Oc1ccc(/C=C/c2cc(O)cc(O)c2)cc1
Hey, which is lower on measured residual activity, a or b ? Lab log: write the label of the selected item as the result.
a
(a: 79%, b: 118%)

====

Tested on: OXSR1 (human), O95747 [T185E]
Sequence (O95747 whole entry T185E, looked up): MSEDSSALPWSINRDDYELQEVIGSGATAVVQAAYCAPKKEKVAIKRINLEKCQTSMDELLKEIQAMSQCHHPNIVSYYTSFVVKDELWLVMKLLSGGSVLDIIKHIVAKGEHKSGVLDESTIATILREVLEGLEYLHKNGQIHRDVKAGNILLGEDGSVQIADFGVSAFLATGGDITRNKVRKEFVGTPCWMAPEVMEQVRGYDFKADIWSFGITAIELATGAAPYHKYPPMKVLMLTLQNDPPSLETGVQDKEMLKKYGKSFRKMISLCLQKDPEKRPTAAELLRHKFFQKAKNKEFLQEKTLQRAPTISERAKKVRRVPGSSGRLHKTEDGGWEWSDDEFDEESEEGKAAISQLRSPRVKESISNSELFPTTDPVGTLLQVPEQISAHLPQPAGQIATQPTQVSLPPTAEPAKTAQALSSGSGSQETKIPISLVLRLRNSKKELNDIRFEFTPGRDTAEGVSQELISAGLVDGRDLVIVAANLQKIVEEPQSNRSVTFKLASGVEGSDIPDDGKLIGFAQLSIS
experiment summary: radiometric filter-binding kinase assay
reported conditions: compound 0.1 µM
reported endpoint: residual activity (%)

- NC(=O)c1cc(-c2ccnc(NC3CCCCC3)c2)nc(N2CCNCC2)c1: 98
- CC1=C(CO)C(=O)O[C@@H]([C@@H](C)[C@H]2CC[C@H]3[C@@H]4C[C@H]5O[C@]56[C@@H](O)C=CC(=O)[C@]6(C)C4CC[C@]23C)C1 (stereo partly drawn): 128
- COc1cc(O)c2c(c1)[C@H]1OC1C[C@H](O)[C@H](O)C(=O)/C=C\C[C@H](C)OC2=O (stereo partly drawn): 99

====

target system: STK24 (human) (UniProt Q9Y6E0)
Sequence (Q9Y6E0 whole entry, looked up): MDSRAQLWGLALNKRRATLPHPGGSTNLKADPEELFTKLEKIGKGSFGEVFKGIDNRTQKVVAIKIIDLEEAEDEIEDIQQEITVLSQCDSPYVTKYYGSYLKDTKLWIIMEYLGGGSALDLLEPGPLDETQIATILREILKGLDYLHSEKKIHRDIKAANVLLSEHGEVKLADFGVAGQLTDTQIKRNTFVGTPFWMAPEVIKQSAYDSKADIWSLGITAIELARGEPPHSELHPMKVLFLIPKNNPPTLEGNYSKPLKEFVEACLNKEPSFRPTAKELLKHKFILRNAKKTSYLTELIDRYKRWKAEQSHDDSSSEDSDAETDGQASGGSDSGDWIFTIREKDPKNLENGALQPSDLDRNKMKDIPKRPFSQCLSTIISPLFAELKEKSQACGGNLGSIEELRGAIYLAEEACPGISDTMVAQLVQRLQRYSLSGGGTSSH
experiment summary: radiometric filter-binding kinase assay
reported conditions: compound 1.0 µM
reported endpoint: residual activity (%)

• CNc1nc(-c2ccc3c(N)n[nH]c3c2)cc(N2C[C@@H](C(=O)NC3CCCCC3)CC[C@H]2C)n1 = 110
• C=C1C(=O)OC2C1CC/C(C)=C/CCC1(C)OC21 (stereo unspecified) = 101
• Nc1cccc2c1CN(C1CCC(=O)NC1=O)C2=O (stereo unspecified) = 82
• CCn1c(-c2nonc2N)nc2cncc(CNC3CCNCC3)c21 = 91
• CCNc1nc(Nc2cc(F)c(C(=O)N3CCOCC3)cc2OC)ncc1C(F)(F)F = 97
• CN(C)C/C=C/C(=O)Nc1cccc(C(=O)Nc2ccc(Nc3nccc(-c4cccnc4)n3)cc2)c1 = 93

====

target system: MAPK9 (human) (UniProt P45984)
Sequence (P45984 whole entry, looked up): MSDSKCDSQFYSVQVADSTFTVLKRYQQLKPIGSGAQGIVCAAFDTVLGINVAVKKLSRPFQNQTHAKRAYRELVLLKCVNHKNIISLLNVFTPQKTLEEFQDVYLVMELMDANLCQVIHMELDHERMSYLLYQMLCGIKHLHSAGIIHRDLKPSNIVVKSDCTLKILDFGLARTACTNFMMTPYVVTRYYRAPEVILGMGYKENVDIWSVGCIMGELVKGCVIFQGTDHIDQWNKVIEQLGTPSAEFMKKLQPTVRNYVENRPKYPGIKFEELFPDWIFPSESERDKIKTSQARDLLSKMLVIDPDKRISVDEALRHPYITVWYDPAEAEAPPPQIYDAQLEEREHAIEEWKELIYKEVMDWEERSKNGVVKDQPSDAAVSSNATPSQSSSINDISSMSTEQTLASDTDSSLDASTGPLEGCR
experiment summary: radiometric filter-binding kinase assay
reported conditions: compound 0.1 µM
reported endpoint: residual activity (%)

- COc1ccc(N(C(=O)Nc2c(C)cccc2C)c2cc(Nc3ccc(N4CCN(C)CC4)cc3)ncn2)c(OC)c1: 90
- O=C(Nc1nc2cc(C(F)(F)F)cc(NC3CC3)n2n1)c1cccnc1: 84
- CCc1cncnc1N1CCN(Cc2nc3cc(C(F)(F)F)ccc3[nH]2)CC1: 92
- NC(=O)c1cc2c(-c3cccc(-c4ccccc4)c3)cnc(N)c2s1: 107
- CN(C)C/C=C/C(=O)Nc1cccc(C(=O)Nc2ccc(Nc3nccc(-c4cccnc4)n3)cc2)c1: 81
- COc1cc(O)c2c(c1)[C@H]1OC1C[C@H](O)[C@H](O)C(=O)/C=C\C[C@H](C)OC2=O (some centres not stated): 106
- CNC(=O)C1[C@H]2O[C@@](C)([C@@H]1N)n1c3ccccc3c3c4c(c5c6ccccc6n2c5c31)C(=O)NC4 (some centres not stated): 98

====

target system: PRKCA (human)
experiment summary: radiometric filter-binding kinase assay
reported conditions: compound 1.0 µM
reported endpoint: residual activity (%)

* CN(C)C/C=C/C(=O)Nc1cccc(C(=O)Nc2ccc(Nc3nccc(-c4cccnc4)n3)cc2)c1 | 97
* NC(=O)c1cc2c(-c3cccc(-c4ccccc4)c3)cnc(N)c2s1 | 64
* COc1ccc(-n2ncc3cnc(Nc4cc(OC)c(OC)c(OCCCN5CCN(C)CC5)c4)nc32)cc1 | 56
* O=C(Nc1nc2cc(C(F)(F)F)cc(NC3CC3)n2n1)c1cccnc1 | 94
* Cn1c(=O)c2c(ncn2C)n(C)c1=O | 100
* Cc1nc(-c2ccc(OCC(C)C)c(C#N)c2)sc1C(=O)O | 94
* CCc1cncnc1N1CCN(Cc2nc3cc(C(F)(F)F)ccc3[nH]2)CC1 | 106
* O=C(NOC[C@H](O)CO)c1ccc(F)c(F)c1Nc1ccc(I)cc1Cl | 100
* COc1cc2ncn(-c3cc(OCc4ccccc4S(C)(=O)=O)c(C#N)s3)c2cc1OC | 96
* NC(=O)c1c(NC(=O)C2CC2)sc2c1CCCC2 | 93
* O=C1NC(=S)N[C@@H]1Cc1c[nH]c2ccccc12 | 97
* COc1cc(C(=O)N2CCOCC2)c(F)cc1Nc1ncc(C(F)(F)F)c(NC2CC2)n1 | 96
* Cc1cc(NC(=O)c2cccc(NC(=O)/C=C/CN(C)C)c2)ccc1Nc1nccc(-c2cccnc2)n1 | 90
* c1ccc2c(-c3cnn4cc(-c5ccc(N6CCNCC6)cc5)cnc34)ccnc2c1 | 96
* NC(=O)c1ccc(-c2ccc(Oc3cncc4sc(-c5nn[nH]n5)cc34)cc2)cc1 | 76
* C[C@H]1CCCC(=O)CCC/C=C/c2cc(O)cc(O)c2C(=O)O1 | 54

====

target system: MAPKAPK2 (human)
experiment summary: radiometric filter-binding kinase assay
reported conditions: compound 1.0 µM
reported endpoint: residual activity (%)

• Cc1ccc(=O)n(-c2ccccc2)c1 = 108
• CCc1cncnc1N1CCN(Cc2nc3cc(C(F)(F)F)ccc3[nH]2)CC1 = 105
• c1ccc2c(-c3cnn4cc(-c5ccc(N6CCNCC6)cc5)cnc34)ccnc2c1 = 91
• CCNc1nc(Nc2cc(F)c(C(=O)N3CCOCC3)cc2OC)ncc1C(F)(F)F = 107
• NCC(=O)Nc1ccc(-n2nc(C(F)(F)F)cc2-c2ccc3c(ccc4ccccc43)c2)cc1 = 91
• CN1C(=O)[C@@H](Cc2c[nH]c3ccccc23)NC1=S = 85

====

target system: MARK4 (human)
experiment summary: radiometric filter-binding kinase assay
reported conditions: compound 1.0 µM
reported endpoint: residual activity (%)

* NS(=O)(=O)OC[C@@H]1C[C@@H](n2ccc3c(N[C@H]4CCc5ccccc54)ncnc32)C[C@@H]1O | 93
* O=C(Nc1nc2cc(C(F)(F)F)cc(NC3CC3)n2n1)c1cccnc1 | 119
* NC(=O)c1ccc(-c2ccc(Oc3cncc4sc(-c5nn[nH]n5)cc34)cc2)cc1 | 86
* Cc1ccc(-c2ccc3c(ccc4sc5c(c43)NC[C@@H](C)NC5=O)n2)cn1 | 87
* O=C(NOCC(O)CO)c1ccc(F)c(F)c1Nc1ccc(I)cc1Cl (configuration not stated) | 119
* Cc1ccc(Sc2cnc(Nc3cccc(Br)n3)s2)cc1C(=O)N1CCN(C(=O)CN)CC1 | 118
* O=C(O)c1cc(N=Nc2ccc(S(=O)(=O)Nc3ccccn3)cc2)ccc1O | 98
* NC(=O)c1c(NC(=O)C2CC2)sc2c1CCCC2 | 105
* C=CC(=O)N1CCC[C@@H](n2nc(-c3ccc(Oc4ccccc4)cc3)c3c(N)ncnc32)C1 | 114
* Cc1cc(NC(=O)c2cccc(NC(=O)/C=C/CN(C)C)c2)ccc1Nc1nccc(-c2cccnc2)n1 | 84
* NC(=O)c1cc2c(-c3cccc(-c4ccccc4)c3)cnc(N)c2s1 | 82
* Cc1nc(-c2ccc(OCC(C)C)c(C#N)c2)sc1C(=O)O | 96

====

target system: MINK1 (human) (UniProt Q8N4C8)
Sequence (Q8N4C8 whole entry, looked up): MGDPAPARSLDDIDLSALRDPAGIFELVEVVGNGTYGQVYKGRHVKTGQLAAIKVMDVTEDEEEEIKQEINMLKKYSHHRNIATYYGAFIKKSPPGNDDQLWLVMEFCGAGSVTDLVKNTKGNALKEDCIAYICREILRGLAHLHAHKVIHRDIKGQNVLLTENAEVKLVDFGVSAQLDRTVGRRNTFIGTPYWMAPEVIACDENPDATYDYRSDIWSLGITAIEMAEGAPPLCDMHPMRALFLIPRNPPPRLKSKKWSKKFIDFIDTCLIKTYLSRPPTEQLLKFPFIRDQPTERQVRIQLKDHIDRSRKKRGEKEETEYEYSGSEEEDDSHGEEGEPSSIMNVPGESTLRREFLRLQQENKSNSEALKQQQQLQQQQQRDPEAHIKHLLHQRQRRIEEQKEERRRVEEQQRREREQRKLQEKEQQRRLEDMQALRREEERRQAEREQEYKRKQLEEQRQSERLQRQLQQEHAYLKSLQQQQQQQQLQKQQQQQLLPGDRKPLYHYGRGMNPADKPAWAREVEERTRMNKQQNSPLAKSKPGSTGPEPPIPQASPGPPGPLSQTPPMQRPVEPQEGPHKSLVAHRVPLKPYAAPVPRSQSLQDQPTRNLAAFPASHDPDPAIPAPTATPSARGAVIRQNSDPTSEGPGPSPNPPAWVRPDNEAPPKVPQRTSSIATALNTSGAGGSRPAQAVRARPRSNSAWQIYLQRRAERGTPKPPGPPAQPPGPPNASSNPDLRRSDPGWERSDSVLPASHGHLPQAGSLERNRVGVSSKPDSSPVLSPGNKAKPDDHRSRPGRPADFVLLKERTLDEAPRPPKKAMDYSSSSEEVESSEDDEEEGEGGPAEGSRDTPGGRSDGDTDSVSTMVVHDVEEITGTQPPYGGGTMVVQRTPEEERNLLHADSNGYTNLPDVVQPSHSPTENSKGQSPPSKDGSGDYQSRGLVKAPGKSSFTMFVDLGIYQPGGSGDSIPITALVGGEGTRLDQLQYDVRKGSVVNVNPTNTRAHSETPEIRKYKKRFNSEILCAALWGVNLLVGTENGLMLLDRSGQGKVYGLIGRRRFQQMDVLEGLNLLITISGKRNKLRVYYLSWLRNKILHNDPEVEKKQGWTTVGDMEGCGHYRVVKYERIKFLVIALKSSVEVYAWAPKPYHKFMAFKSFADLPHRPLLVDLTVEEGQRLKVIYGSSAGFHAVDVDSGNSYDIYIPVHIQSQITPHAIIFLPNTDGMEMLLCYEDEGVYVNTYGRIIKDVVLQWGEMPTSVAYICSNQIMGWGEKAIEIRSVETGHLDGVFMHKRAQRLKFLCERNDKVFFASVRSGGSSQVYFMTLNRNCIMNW
experiment summary: radiometric filter-binding kinase assay
reported conditions: compound 10.0 µM
reported endpoint: residual activity (%)

- FC(F)(F)c1ccc(-c2ccc(Oc3cncc4sc(-c5nn[nH]n5)cc34)cc2)cc1: 87

P: Nc1cccc2c1CN(C1CCC(=O)NC1=O)C2=O (stereo not drawn)
Q: O=C(O)c1cc(N=Nc2ccc(S(=O)(=O)Nc3ccccn3)cc2)ccc1O
Hey, which is lower on measured residual activity, P or Q ? Lab log: write the label of the selected item as the result.
Q
(Q: 57%, P: 118%)
